molecular target: C5a receptor (Homo sapiens); assay: [125I]-C5a Radioligand Binding Assay (competition binding, differentiated U937 cells); settings: read-out: [125I]-C5a Binding % Inhibition 1 μM, test compound 1 μM; [125I]-C5a 0.05 nM; U937 cells; multiple values = duplicate experiments
Kind request: treat 80% as inclusive, so inhibition at 1 µM at 80% or higher is Condition met, anything lower is Condition not met.

A selection of reference data follows.
- COMPOUND: "CCc1cccc(CC)c1-c1cc(SC)c2c(n1)CCCC2N(CC)c1cccc2ccccc12 (centres unmarked)"
  ASSAYED_TARGET: "C5a receptor (Homo sapiens)"
  LABEL_CLASS: "Condition met"
- COMPOUND: "CCc1ccccc1NC1CCCc2nc(-c3c(CC)cccc3CC)cc(OC)c21 (centres unmarked)"
  ASSAYED_TARGET: "C5a receptor (Homo sapiens)"
  LABEL_CLASS: "Condition met"
- COMPOUND: "CCN(c1cccc2ccccc12)C1CCCc2nc(-c3ccccc3-c3ccccc3)cc(OC)c21 (centres unmarked)"
  ASSAYED_TARGET: "C5a receptor (Homo sapiens)"
  LABEL_CLASS: "Condition not met"
- COMPOUND: "CCc1cccc(CC)c1-c1cc(OC)c2c(n1)CCCC2N(C(C)=O)c1cccc2ccccc12 (centres unmarked)"
  ASSAYED_TARGET: "C5a receptor (Homo sapiens)"
  LABEL_CLASS: "Condition not met"
- COMPOUND: "CCc1cccc(CC)c1-c1cc(OC)c2c(n1)CCCC2N1CCc2ccc(C#N)cc2C1 (centres unmarked)"
  ASSAYED_TARGET: "C5a receptor (Homo sapiens)"
  LABEL_CLASS: "Condition not met"

Consider now this further compound.
Assess whether reported inhibition at 1 µM for CCN(c1cccc2ccccc12)C1CCCc2nc(-c3c(OC)cccc3OC)cc(OC)c21 (centres unmarked) sits at 80% or higher. Condition not met

###

Biological target: C5a receptor (Homo sapiens)
Sequence (P21730 1-350): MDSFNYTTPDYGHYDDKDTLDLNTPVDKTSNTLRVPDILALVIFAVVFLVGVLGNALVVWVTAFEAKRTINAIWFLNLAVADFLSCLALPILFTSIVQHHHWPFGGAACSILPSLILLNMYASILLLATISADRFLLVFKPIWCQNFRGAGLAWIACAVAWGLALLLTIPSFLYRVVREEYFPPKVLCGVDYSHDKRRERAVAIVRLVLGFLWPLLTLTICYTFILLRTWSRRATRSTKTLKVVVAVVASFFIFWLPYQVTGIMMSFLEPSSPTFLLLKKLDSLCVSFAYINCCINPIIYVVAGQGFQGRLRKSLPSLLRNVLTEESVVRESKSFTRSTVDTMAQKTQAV
Experiment: [125I]-C5a Radioligand Binding Assay (competition binding, differentiated U937 cells);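 also: cells preincubated with compound 30 min at room temperature, then 60 min at 4 °C with radioligand, bound counts read by scintillation, nonspecific binding defined with 100 nM C5a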
Details: read-out: [125I]-C5a Binding % Inhibition 1 μM, test compound 1 μM; [125I]-C5a 0.05 nM; U937 cells; multiple values = duplicate experiments
Kind request: treat 60% as inclusive, so inhibition at 1 µM at 60% or higher is MET, anything lower is NOT MET.

- MOLECULE: "COc1cc(-c2c(C)cccc2C)nc2c1C(N(C)c1c(C)cccc1C)CCC2 (centres unmarked) [Compound 114]"
  LABEL_CLASS: "MET"
- MOLECULE: "CCc1cccc(CC)c1-c1cc(OC)c2c(n1)CCCC2N1CCc2cc(C(F)(F)F)ccc2C1 (centres unmarked) [Compound 102]"
  LABEL_CLASS: "MET"
- MOLECULE: "CCc1cccc(CC)c1-c1cc(OC)c2c(n1)CCCC2N(C)c1c(C)ccc2ccccc12 (centres unmarked) [Compound 52]"
  LABEL_CLASS: "MET"

Assess whether reported inhibition at 1 µM for CCc1cccc(CC)c1-c1cc(OC)c2c(n1)CCCC2N1CCc2ccccc21 (centres unmarked) [Compound 93] sits at 60% or higher. MET

Assess whether reported inhibition at 1 µM for CCN(c1cccc2ccccc12)C1CCCc2nc(-c3ccccc3C)cc(OC)c21 (centres unmarked) [Compound 30] sits at 60% or higher. MET

Assess whether reported inhibition at 1 µM for CCc1cccc(CC)c1-c1cc(OC)c2c(n1)CCCC2Nc1cc(C(F)(F)F)ccc1C (centres unmarked) [Compound 28] sits at 60% or higher. MET

Assess whether reported inhibition at 1 µM for CCc1cccc(CC)c1-c1cc(OC)c2c(n1)CCCC2N(C)Cc1ccco1 (centres unmarked) [Compound 92] sits at 60% or higher. NOT MET

Assess whether reported inhibition at 1 µM for CCc1cccc(CC)c1-c1cc(OC)c2c(n1)CCCC2N1CCc2ccc(C(=O)O)cc2C1 (centres unmarked) [Compound 131] sits at 60% or higher. NOT MET

Taken from patent US20090048295A1.
